Molecular target: T1, Syn7002-RbcX (Synechococcus sp. PCC7002, UniProt Q44177 1-134)
T1 construct: Assembly chaperone; also called RbcX of Synechococcus sp; PCC7002; non-tagged Syn7002-RbcX
T1 sequence (looked up): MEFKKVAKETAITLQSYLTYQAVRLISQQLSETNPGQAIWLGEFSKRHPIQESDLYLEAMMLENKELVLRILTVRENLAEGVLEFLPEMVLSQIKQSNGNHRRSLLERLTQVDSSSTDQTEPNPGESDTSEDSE
Assay: isothermal titration calorimetry, peptide titrated into RbcX dimer at 22°C
I'd be grateful if you could share measured Kd for these entries.

Enquiry: Value lookup for Kd; key = EIKFEFD (also called peptide EIKFEFD) [Syn7002-RbcL peptide 1, EIKFEFD]
Return: ~230 µM

Enquiry: Value lookup for Kd; key = KEIKFEFDTVD [Syn7002-RbcL peptide 2, KEIKFEFDTVD]
Return: ~160 µM

Origin of values: patent EP1988168A1
